- assayed system: P-gp (ABCB1) (Homo sapiens, UniProt P08183)
- Sequence (P08183 whole entry): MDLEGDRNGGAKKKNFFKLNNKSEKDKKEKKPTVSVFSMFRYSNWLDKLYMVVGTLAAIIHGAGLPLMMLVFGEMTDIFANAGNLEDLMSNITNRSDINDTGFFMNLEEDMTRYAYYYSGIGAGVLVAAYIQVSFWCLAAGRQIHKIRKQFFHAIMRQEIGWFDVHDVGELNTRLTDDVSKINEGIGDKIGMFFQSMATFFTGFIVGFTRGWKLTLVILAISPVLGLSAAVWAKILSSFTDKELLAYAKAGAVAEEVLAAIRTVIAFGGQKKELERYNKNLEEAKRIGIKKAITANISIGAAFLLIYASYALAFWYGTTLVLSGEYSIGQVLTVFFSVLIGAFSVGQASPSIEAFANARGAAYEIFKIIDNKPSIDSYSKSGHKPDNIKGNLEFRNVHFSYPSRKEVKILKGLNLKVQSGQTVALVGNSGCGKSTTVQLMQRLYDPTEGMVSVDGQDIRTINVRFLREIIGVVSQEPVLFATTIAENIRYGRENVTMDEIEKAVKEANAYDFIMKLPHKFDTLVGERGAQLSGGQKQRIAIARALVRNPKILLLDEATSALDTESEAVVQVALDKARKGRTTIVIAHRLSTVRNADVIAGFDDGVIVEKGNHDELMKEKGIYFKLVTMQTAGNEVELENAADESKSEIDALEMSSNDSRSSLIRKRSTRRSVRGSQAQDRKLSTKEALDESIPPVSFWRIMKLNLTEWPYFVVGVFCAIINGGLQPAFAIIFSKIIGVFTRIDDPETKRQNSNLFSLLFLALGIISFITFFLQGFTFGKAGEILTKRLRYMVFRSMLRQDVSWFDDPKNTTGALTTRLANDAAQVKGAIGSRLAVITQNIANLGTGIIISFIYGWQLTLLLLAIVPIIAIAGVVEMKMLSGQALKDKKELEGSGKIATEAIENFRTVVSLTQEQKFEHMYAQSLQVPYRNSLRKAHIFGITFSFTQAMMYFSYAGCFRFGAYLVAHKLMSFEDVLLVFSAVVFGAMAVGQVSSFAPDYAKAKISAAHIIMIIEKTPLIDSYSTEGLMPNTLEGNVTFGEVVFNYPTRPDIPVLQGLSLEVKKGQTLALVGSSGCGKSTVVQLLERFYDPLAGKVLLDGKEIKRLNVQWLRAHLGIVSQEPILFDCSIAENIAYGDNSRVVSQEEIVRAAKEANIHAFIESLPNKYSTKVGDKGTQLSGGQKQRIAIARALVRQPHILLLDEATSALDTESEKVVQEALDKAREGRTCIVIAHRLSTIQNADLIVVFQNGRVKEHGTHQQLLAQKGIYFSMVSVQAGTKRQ
- experiment: Substrate activity at Pgp (unknown origin) assessed as permeability from apical to basolateral side by cell based assay
- Assay type: ADME
- experimental conditions: not told
test readout: Papp A→B (×10⁻⁶ cm/s)
Value expressed in ×10⁻⁶ cm/s; do not type the unit.

Ask: // output Papp A→B; input Oc1ccc(-c2ccc(CNCCc3c[nH]c4ncc(F)cc34)o2)cc1 ; system P-gp (ABCB1) (Homo sapiens, UniProt P08183)
Result: 8.87

###

- experiment: in vitro
- experimental conditions: rat, liver microsomes
test readout: microsomal CLint at 1 h (µL/min/mg)
Value expressed in µL/min/mg; do not type the unit.

Ask: Using the record for Oc1ccc(-c2ccc(CNCCc3c[nH]c4ccccc34)o2)cc1 , state its measured microsomal CLint at 1 h.
Result: 222

Ask: Using the record for COc1ccc2[nH]cc(CCNCc3ccc(-c4ccc(O)cc4)o3)c2c1 , state its measured microsomal CLint at 1 h.
Result: 63.4

Ask: Using the record for Oc1ccc(-c2ccc(CNCCc3c[nH]c4ncc(F)cc34)o2)cc1 , state its measured microsomal CLint at 1 h.
Result: 103

Ask: Using the record for COc1ccc2[nH]c(C)c(CCNCc3ccc(-c4ccc(O)cc4)o3)c2c1 , state its measured microsomal CLint at 1 h.
Result: 184

###

- assayed system: 5-hydroxytryptamine receptor 6 (Homo sapiens, UniProt P50406)
- Sequence (P50406 whole entry): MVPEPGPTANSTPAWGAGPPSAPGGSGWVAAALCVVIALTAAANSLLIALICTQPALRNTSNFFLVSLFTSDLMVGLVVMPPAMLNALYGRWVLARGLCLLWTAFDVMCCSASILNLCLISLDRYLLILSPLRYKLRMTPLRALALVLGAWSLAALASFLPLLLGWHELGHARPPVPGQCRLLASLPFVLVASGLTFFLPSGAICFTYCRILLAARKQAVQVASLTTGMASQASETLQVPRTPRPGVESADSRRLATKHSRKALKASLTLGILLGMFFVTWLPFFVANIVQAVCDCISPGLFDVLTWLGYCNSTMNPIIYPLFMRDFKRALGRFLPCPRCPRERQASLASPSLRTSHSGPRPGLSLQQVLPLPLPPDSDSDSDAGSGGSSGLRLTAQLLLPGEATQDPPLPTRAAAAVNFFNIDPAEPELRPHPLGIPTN
- experiment: Binding affinity to 5-HT6R (unknown origin) assessed as inhibitory constant
Classification by Ki follows these ranges: c1 = under 60 nM, c2 = from 60 nM up to 600 nM, c3 = 600 nM and over

Ask: Quick check: band for Cc1nc(N2CCCN(C)CC2)c2c3c(sc2n1)CCC3
Result: c2

Ask: Quick check: band for N=C(NC1=NC2CCCCC2C(=O)N1)N1CCC(Cc2ccccc2)CC1 (configuration not stated)
Result: c1

Ask: Quick check: band for Oc1c(CN2CCCC2)cc(CSc2ccccc2)c2cccnc12
Result: c3

Ask: Quick check: band for CN1CCN(c2nc(NCc3ccccc3)c3c(n2)N(C)NC3)CC1
Result: c1

Ask: Quick check: band for CN1CCN(c2ccnc(SCc3ccccc3Cl)n2)CC1
Result: c3

Ask: Quick check: band for CC(CSc1nc2ccccc2c(=O)n1-c1ccc(Cl)cc1)N(C)C (configuration not stated)
Result: c1

Ask: Quick check: band for Cc1cc(OCCN(C)C)nc(NCc2ccccc2)n1
Result: c3

Ask: Quick check: band for CCc1cc2c(N3CCN(C)CC3)nc(C)nc2s1
Result: c2

Ask: Quick check: band for COc1ccc(Cc2nc(N3CCNCC3)nc3cccnc23)c(OC)c1
Result: c1

###

- assayed system: P-gp (ABCB1) (Homo sapiens, UniProt P08183)
- experiment: Substrate activity at Pgp (unknown origin) assessed as permeability from basolateral to apical side by cell based assay
- Type: ADME
- experimental conditions: not told
test readout: Papp B→A (×10⁻⁶ cm/s)
Value expressed in ×10⁻⁶ cm/s; do not type the unit.

Ask: Using the record for Oc1ccc(-c2ccc(CNCCc3c[nH]c4ncc(F)cc34)o2)cc1 , state its measured Papp B→A.
Result: 3.43

###

- assayed system: 5-HT2C receptor (Homo sapiens)
- Sequence (P28335 whole entry): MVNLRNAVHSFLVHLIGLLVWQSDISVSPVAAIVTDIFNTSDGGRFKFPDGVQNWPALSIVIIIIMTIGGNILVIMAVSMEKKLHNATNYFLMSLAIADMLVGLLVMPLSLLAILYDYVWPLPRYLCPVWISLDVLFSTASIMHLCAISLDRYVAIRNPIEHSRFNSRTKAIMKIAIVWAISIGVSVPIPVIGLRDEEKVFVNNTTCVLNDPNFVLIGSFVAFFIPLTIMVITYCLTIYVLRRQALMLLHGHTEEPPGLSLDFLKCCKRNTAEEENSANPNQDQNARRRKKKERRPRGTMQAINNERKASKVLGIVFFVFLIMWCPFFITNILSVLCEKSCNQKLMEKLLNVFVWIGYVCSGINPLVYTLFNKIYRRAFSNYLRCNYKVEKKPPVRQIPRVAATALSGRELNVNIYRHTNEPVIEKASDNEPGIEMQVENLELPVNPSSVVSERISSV
- experiment: Inhibition of 5-HT2C receptor (unknown origin) at 10^-6 M relative to control
test readout: inhibition at 1 µM (%)
Value expressed in %; do not type the unit.

Ask: // output inhibition at 1 µM; input Oc1ccc(-c2ccc(CNCCc3c[nH]c4ccc(F)cc34)o2)cc1 ; system 5-HT2C receptor (Homo sapiens)
Result: 99
